Tested on: MALME-3M melanoma
experiment-summary: NCI tumour cell line growth inhibition, 48 h
value-type: GI50

input-smiles | target-or-system | GI50
Nc1ncn([C@@H]2O[C@H](CO)[C@@H](O)[C@H]2O)c(=O)n1 | MALME-3M melanoma | 3.65 µM
Clc1cc2c(c(CSc3nc4ccccc4n4cccc34)c1)OCOC2 | MALME-3M melanoma | 29.6 µM
COc1ccc(-c2ccc(=O)oc2C#Cc2cc(OC)c(OC)c(OC)c2)cc1O | MALME-3M melanoma | 2.66 µM
CCN1CCN(c2cc(C)c3cc(NC(=O)c4ccc(OC)c(OC)c4)ccc3n2)CC1 | MALME-3M melanoma | 13.3 µM

Would you mind telling me what GI50 value was observed for Cc1nc(Nc2cccnc2)sc1C(=O)/C=C/c1ccc(F)cc1 ?
5.55 µM

Cited source: PubChem BioAssay (NCI)
